Organism: Rattus norvegicus
Assay: Open TG-GATES - Regimen: Daily Repeat
Type: toxicity, organism-based, Sprague-Dawley
Set-up: regimen Daily Repeat, gender Male, age 6 weeks
Conditions: in vivo, po, 300 mg/kg, […], tissue Blood, route gavage, dose level Middle, time 14 day
RBC overview
Note: a bare number is incomplete; add the unit.

O=C(N[C@H](CO)[C@H](O)c1ccc([N+](=O)[O-])cc1)C(Cl)Cl :: 692.8 x10_4/ul

(Q) Fill blank: measured RBC of the compound CC(C)(S)[C@@H](N)C(=O)O is ____.
(A) 727 x10_4/ul

(Q) Fill blank: measured RBC of the compound O=C(O)c1cccnc1 is ____.
(A) 705.8 x10_4/ul

(Q) Fill blank: measured RBC of the compound CCN1CCCC1CNC(=O)c1cc(S(N)(=O)=O)ccc1OC (centres undefined) [SULPIRIDE] is ____.
(A) 736 x10_4/ul

Measured values drawn from ChEMBL document CHEMBL3885861 for this set.
